# Measured target: SARS-CoV-2 3CL protease (Severe acute respiratory syndrome coronavirus 2, UniProt P0DTD1)
# Test method notes: Inhibitory activity test against SARS-CoV-2 3CL proteases
# Assay type: biochemical
# Setup conditions: IC50 (50% SARS-CoV-2 3CL protease inhibitory concentration)
pIC50: −log10 of the molar value.
Quantity name: pIC50

Inquiry: Fill in pIC50 for record [2H]C([2H])([2H])n1cnc(Cn2c(=O)c3c(OC)nc(N4CC[C@@H](F)C4)cc3n(Cc3cc(F)c(F)c(F)c3)c2=O)n1 [Compound I-0917]
Reply text: > 7.00

Inquiry: Dear colleague, please send me the reported pIC50 for COc1nc(N2[C@H]3CC[C@@H]2[C@@H](O)C3)cc2c1c(=O)n(Cc1ncn(C)n1)c(=O)n2Cc1cc(F)c(F)c(F)c1 [Compound I-0602] when you can.
Reply text: > 7.00

Inquiry: Using the record for COc1nc(N2[C@@H]3CC[C@H]2CNC3)cc2c1c(=O)n(-c1cnc3ccc(Cl)cn13)c(=O)n2Cc1cc(F)c(F)c(F)c1 [Compound I-0671] , state its measured pIC50.
Reply text: 8.48
